The reported numbers originate from patent US10800791B2.

Please go through the items and note down their IC50.
- assayed_system: human (hACC2) (Homo sapiens, UniProt O00763)
- Sequence (O00763 whole entry): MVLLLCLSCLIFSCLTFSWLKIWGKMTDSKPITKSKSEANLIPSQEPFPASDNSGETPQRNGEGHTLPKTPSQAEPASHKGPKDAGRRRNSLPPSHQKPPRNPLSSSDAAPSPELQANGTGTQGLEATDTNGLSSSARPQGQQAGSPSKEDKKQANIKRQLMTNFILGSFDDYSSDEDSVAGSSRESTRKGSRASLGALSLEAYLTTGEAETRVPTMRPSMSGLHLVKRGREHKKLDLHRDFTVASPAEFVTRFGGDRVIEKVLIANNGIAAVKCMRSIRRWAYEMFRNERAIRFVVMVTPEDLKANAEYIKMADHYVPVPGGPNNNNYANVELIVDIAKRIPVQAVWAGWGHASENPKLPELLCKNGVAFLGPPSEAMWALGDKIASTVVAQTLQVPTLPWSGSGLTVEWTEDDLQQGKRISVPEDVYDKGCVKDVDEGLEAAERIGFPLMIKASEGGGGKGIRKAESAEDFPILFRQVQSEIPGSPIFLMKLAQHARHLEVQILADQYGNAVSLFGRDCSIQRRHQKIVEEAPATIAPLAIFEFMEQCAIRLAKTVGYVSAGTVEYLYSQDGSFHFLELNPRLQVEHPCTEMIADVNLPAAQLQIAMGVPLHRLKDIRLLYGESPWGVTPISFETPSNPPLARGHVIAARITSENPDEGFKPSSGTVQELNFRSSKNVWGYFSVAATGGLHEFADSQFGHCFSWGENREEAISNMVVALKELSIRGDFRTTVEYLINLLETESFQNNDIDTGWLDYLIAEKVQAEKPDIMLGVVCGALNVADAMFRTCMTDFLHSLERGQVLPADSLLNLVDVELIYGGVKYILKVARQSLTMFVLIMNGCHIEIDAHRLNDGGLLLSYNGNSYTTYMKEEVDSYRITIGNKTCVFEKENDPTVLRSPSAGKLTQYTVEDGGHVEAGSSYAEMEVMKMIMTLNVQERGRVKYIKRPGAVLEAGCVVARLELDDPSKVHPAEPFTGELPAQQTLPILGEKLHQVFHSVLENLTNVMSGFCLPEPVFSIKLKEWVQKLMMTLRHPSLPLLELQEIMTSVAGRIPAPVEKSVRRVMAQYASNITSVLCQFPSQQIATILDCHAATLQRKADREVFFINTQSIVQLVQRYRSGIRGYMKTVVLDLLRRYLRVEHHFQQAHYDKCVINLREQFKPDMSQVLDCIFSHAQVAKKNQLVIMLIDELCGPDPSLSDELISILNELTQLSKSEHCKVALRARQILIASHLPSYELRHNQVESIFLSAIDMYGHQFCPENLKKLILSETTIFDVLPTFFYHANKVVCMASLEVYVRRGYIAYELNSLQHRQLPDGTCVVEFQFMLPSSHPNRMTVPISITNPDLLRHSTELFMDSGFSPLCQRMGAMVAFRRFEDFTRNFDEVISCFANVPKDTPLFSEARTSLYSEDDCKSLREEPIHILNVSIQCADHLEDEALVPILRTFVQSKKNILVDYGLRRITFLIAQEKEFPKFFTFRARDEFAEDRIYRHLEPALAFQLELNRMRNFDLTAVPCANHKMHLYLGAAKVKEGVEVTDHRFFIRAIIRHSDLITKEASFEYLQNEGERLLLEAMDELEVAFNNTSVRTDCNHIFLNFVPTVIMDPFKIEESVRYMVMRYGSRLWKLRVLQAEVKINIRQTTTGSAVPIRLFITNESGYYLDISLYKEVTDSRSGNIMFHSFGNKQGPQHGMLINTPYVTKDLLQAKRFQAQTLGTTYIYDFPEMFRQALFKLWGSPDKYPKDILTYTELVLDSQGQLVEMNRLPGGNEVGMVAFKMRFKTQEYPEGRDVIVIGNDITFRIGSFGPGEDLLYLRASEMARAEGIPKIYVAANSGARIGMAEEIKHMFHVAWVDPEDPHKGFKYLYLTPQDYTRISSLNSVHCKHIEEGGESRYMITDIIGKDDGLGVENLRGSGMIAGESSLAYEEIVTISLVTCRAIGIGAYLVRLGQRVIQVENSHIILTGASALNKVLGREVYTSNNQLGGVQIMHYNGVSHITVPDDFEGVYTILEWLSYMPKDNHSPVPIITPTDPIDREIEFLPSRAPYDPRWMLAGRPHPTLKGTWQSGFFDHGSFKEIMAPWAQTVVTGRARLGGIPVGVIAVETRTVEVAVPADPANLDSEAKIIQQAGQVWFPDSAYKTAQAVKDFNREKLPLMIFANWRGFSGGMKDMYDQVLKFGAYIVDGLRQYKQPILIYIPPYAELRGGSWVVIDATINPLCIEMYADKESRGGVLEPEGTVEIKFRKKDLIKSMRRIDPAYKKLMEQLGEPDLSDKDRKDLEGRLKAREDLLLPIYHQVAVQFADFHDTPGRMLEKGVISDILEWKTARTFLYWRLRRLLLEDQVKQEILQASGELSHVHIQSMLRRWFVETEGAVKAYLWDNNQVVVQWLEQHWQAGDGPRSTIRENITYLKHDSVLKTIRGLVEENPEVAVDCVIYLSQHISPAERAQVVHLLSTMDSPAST
- method_description: In vitro ACC inhibition assay (ADP-Glo), hACC2
- Assay type: biochemical
- measurement_context: Table 2b, additional results, 5 nM ACC2, 20 μM ATP, 20 μM acetyl-CoA

Exercise: Provide only the value of recorded IC50 for COc1ccc(F)cc1[C@H](Cn1c(=O)n(C(C)(C)C(=O)NC(C)C)c(=O)c2c(C)c(-n3nccn3)sc21)OCC(C)(C)C#N [Compound I-154]
Solution: 5 to 10 nM

Exercise: Provide only the value of recorded IC50 for Cc1c(-n2nccn2)sc2c1c(=O)n(C(C)(C)C(=O)NC(C)C)c(=O)n2C[C@H](OC1CCOCC1)c1cc(F)ccc1OCC#N [Compound I-116]
Solution: 5 to 10 nM

Exercise: Provide only the value of recorded IC50 for COc1ccc(F)cc1[C@H](Cn1c(=O)n(C(C)(C)C(=O)NC2CCCCC2)c(=O)c2c(C)c(-n3nccn3)sc21)OC1CCOCC1 [Compound I-28]
Solution: 10 to 40 nM

Exercise: Provide only the value of recorded IC50 for CCOC(=O)c1ccccc1[C@H](Cn1c(=O)n(C(C)(C)C(=O)NC(C)C)c(=O)c2c(C)c(-n3nccn3)sc21)OCCC#N [Compound I-275]
Solution: > 40 nM

Exercise: Provide only the value of recorded IC50 for COc1ccc(F)cc1[C@H](Cn1c(=O)n(CC(=O)N2CCCC2)c(=O)c2c(C)c(-n3nccn3)sc21)OCCO [Compound I-81]
Solution: 5 to 10 nM

Exercise: Provide only the value of recorded IC50 for Cc1c(-n2nccn2)sc2c1c(=O)n(C(C)(C)C(=O)NC(C)C)c(=O)n2C[C@H](OCCO)c1cc(F)ccc1O [Compound I-226]
Solution: 10 to 40 nM

Exercise: Provide only the value of recorded IC50 for COc1ccc(F)cc1[C@H](Cn1c(=O)n(C(C)(C)C(=O)N2CCCC2)c(=O)c2c(C)c(-n3nccn3)sc21)OCCCO [Compound I-118]
Solution: 1 to 5 nM

Exercise: Provide only the value of recorded IC50 for CCOC(=O)C(C)(C)n1c(=O)c2c(C)c(-n3nccn3)sc2n(C[C@H](OCCO)c2cc(F)ccc2OC)c1=O [Compound I-74]
Solution: 5 to 10 nM

Exercise: Provide only the value of recorded IC50 for COc1ccc(F)cc1[C@H](Cn1c(=O)n(C(C)(C)C(=O)NC(C)C)c(=O)c2c(C)c(-n3nccn3)sc21)OCC(C)C [Compound I-10]
Solution: 10 to 40 nM

Exercise: Provide only the value of recorded IC50 for COc1ccc(F)cc1[C@H](Cn1c(=O)n(C(C)(C)C(=O)N(C)C)c(=O)c2c(C)c(-n3nccn3)sc21)OC(C)C [Compound I-49]
Solution: 10 to 40 nM

Exercise: Provide only the value of recorded IC50 for Cc1c(-n2nccn2)sc2c1c(=O)n(C(C)(C)C(=O)NC(C)C)c(=O)n2CCc1cc(F)ccc1OCc1ccccc1 [Compound I-277]
Solution: 10 to 40 nM

Exercise: Provide only the value of recorded IC50 for Cc1c(-n2nccn2)sc2c1c(=O)n(C(C)(C)C(=O)NC1CCC1)c(=O)n2C[C@H](OC(C)C)c1cc(F)ccc1OCC#N [Compound I-221]
Solution: 5 to 10 nM

Exercise: Provide only the value of recorded IC50 for Cc1c(-n2nccn2)sc2c1c(=O)n(C(C)(C)C(=O)NC(C)C)c(=O)n2C[C@H](OCCC#N)c1ccccc1O [Compound I-271]
Solution: 5 to 10 nM

Exercise: Provide only the value of recorded IC50 for CCOC(=O)[C@H]1CC[C@H](O[C@@H](Cn2c(=O)n(C(C)(C)C(=O)NC(C)C)c(=O)c3c(C)c(-n4nccn4)sc32)c2cc(F)ccc2OC)CC1 [Compound I-269]
Solution: > 40 nM

Exercise: Provide only the value of recorded IC50 for CCc1ccc(F)cc1[C@H](Cn1c(=O)n(C(C)(C)C(=O)NC(C)C)c(=O)c2c(C)c(-n3nccn3)sc21)OCCOC [Compound I-126]
Solution: 5 to 10 nM

Exercise: Provide only the value of recorded IC50 for COc1ccc(F)cc1[C@H](Cn1c(=O)n(C(C)(C)C(=O)N2CCCCC2)c(=O)c2c(C)c(-n3nccn3)sc21)OC1CCC(=O)CC1 [Compound I-34]
Solution: 5 to 10 nM

Exercise: Provide only the value of recorded IC50 for COc1ccc(F)cc1[C@H](Cn1c(=O)n(CC(=O)N2CCCC2)c(=O)c2c(C)c(-n3nccn3)sc21)OC(C)C [Compound I-36]
Solution: 1 to 5 nM

Exercise: Provide only the value of recorded IC50 for CCc1ccc(F)cc1[C@@H](Cn1c(=O)n(C(C)(C)C(=O)NC(C)C)c(=O)c2c(C)c(-n3nccn3)sc21)OC[C@H](C)C#N [Compound I-245]
Solution: 1 to 5 nM

Exercise: Provide only the value of recorded IC50 for Cc1c(-n2nccn2)sc2c1c(=O)n(C(C)(C)C(=O)NC(C)C)c(=O)n2C[C@H](OC1CCOCC1)c1cc(F)ccc1OCC1COC1 [Compound I-108]
Solution: 1 to 5 nM

Exercise: Provide only the value of recorded IC50 for COc1ccc(F)cc1[C@H](Cn1c(=O)n(C(C)(C)C(=O)N2CCCCC2)c(=O)c2c(C)c(-n3nccn3)sc21)OC1CCOCC1 [Compound I-24]
Solution: 10 to 40 nM

Exercise: Provide only the value of recorded IC50 for COc1ccc(F)cc1[C@H](Cn1c(=O)n(C(C)(C)C(=O)N2CCCCC2)c(=O)c2c(C)c(-n3nccn3)sc21)OC(C)C [Compound I-6]
Solution: 10 to 40 nM

Exercise: Provide only the value of recorded IC50 for COc1ccc(F)cc1[C@H](Cn1c(=O)n(C(C)(C)C(=O)N2CC=CC2)c(=O)c2c(C)c(-n3nccn3)sc21)OCC(C)=O [Compound I-190]
Solution: 5 to 10 nM

Exercise: Provide only the value of recorded IC50 for COCCOc1ccc(F)cc1[C@H](Cn1c(=O)n(C(C)(C)C(=O)NC(C)C)c(=O)c2c(C)c(-n3nccn3)sc21)OC(C)C [Compound I-54]
Solution: 10 to 40 nM

Exercise: Provide only the value of recorded IC50 for CCNC(=O)C(C)(C)n1c(=O)c2c(C)c(-n3nccn3)sc2n(C[C@H](OC2CCOCC2)c2ccccc2OC)c1=O [Compound I-15]
Solution: 1 to 5 nM

Exercise: Provide only the value of recorded IC50 for COc1ccc(F)cc1[C@H](Cn1c(=O)n(C(C)(C)C(N)=O)c(=O)c2c(C)c(-n3nccn3)sc21)OCC(C)(C)C#N [Compound I-155]
Solution: 5 to 10 nM
